# target: Paired box protein Pax-8 (Homo sapiens)
# Sequence (Q06710 whole entry): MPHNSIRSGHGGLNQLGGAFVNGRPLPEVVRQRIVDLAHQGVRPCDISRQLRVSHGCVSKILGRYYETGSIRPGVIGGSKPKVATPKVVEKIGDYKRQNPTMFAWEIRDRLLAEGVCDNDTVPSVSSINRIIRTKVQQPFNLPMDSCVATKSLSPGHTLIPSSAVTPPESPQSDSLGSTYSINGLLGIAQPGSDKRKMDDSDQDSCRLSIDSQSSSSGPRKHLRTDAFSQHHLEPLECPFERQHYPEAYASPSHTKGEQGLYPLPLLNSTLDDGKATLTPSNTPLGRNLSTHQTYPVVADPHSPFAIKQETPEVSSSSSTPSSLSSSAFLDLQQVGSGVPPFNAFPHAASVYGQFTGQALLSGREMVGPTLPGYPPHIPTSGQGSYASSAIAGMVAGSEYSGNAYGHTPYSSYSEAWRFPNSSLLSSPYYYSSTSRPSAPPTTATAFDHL
# experiment-summary: inhibitors of PAX8-driven TPO luciferase reporter, dose response, RMG-I cells, cherry-pick (AID 687027);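 note: luciferase reporter driven by Pax8 target thyroperoxidase promoter measured by SteadyGlo luminescence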
# Format: functional, cell-based
Activity calls are given as the source filed them.
Quick reference for AC50 among some compounds

Solved entries (count: 3):
CCN1CCN(Cc2ccc(NC(=O)c3ccc(C)c(NC(=O)C(=O)c4c[nH]c5ccccc45)c3)cc2C(F)(F)F)CC1
12.1 µM (active)
C[C@H]1CCCCO[C@H](CN(C)C(=O)Nc2cccc3ccccc23)[C@@H](C)CN([C@@H](C)CO)C(=O)c2cc(NS(=O)(=O)c3ccc(F)cc3)ccc2O1
5.88 µM (active)
CN1CCN(CCCNC(=O)c2ccc(/C=C3\Oc4ccccc4N(Cc4ccc(Cl)cc4)C3=O)cc2)CC1
16.9 µM (active)

For CCCCCC(CC(=O)NO)C(=O)NC(C(=O)N1CCCC1CO)C(C)C (centres undefined) , what is its reported AC50?
5.27 µM (active)

---

# experiment-summary: inhibitors of intracellular T. cruzi replication, confirmation, NIH3T3 host cells, beta-gal luminescence (AID 2044);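 note: intracellular parasites grown in NIH/3T3 mouse fibroblasts as host cells; luminescent beta-galactosidase reporter signal from transgenic T. cruzi replicating inside host cells; inhibitors lower the luminescence signal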
# Format: functional, cell-based
The source made the active and inactive calls.
quantity-kind: EC50

CC[n+]1c(C=CN(C)c2ccccc2)sc2ccc(Cl)cc21.[O-][Cl+3]([O-])([O-])[O-]
< 100 nM (active)
CN1CCC(N(C)CC(=O)Nc2cccc(Oc3ccccc3)c2)CC1
< 100 nM (active)
CC1CC(C)CN(C2=CC(=[N+]3CCCC3)CC(C)(C)C2)C1 (configuration not stated)
159 nM (active)

For Oc1c(N=NC(S)=Nc2ccccc2F)c2ccccc2n1Cc1cccc(Cl)c1 , what is its reported EC50?
676 nM (active)

// query: Cc1ccc(O)c(NC2=C(Cl)C(=O)N(Cc3ccccc3)C2=O)c1
4370 nM (active)

---

Quick reference for IC50 among some compounds
# target: Carboxy-terminal domain RNA polymerase II polypeptide A small phosphatase 1 (Homo sapiens)
# Sequence (Q9GZU7 whole entry, the tested form may be a part): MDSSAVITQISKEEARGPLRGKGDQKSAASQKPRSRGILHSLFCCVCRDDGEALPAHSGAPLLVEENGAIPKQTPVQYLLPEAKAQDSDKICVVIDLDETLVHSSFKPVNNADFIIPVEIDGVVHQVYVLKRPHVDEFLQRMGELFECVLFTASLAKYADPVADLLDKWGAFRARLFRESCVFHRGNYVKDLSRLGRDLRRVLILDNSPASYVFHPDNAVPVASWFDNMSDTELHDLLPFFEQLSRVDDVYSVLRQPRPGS
# experiment-summary: inhibitors of CTDSP1, concentration-response testing, biochemical assay, absorbance-based, actives from ultra-high-throughput screening (AID 540297)
# Format: functional
Active and inactive are the calls of the source.

Solved entries (count: 5):
CC(=O)Oc1ccc(/C=N\NC(=O)c2cc3c(ccc4ccccc43)o2)cc1
4.3 µM (active)
C[Se]C[C@@H](N)C(=O)O
15 µM (active)
CCOC(=O)c1ccc(/C=C2/C=C(c3ccccc3)N(c3ccc(Cl)c(C(=O)O)c3)C2=O)cc1
5.15 µM (active)
Cc1cccc(NC(=O)CSc2nc3nc(O)cc(O)c3s2)c1
15.9 µM (active)
CSc1nnc(C)c(/C=C/Nc2ccc(F)cc2F)n1
13.3 µM (active)

Consider the record given below.
For COc1ccc(-c2nnc(NC(=O)c3cccs3)s2)c(OC)c1 , what is its reported IC50?
3.57 µM (active)

---

As an illustration, consider measured AC50 for compounds on Cytochrome P450 1A2 (Homo sapiens, UniProt P05177).
Sequence (P05177 whole entry): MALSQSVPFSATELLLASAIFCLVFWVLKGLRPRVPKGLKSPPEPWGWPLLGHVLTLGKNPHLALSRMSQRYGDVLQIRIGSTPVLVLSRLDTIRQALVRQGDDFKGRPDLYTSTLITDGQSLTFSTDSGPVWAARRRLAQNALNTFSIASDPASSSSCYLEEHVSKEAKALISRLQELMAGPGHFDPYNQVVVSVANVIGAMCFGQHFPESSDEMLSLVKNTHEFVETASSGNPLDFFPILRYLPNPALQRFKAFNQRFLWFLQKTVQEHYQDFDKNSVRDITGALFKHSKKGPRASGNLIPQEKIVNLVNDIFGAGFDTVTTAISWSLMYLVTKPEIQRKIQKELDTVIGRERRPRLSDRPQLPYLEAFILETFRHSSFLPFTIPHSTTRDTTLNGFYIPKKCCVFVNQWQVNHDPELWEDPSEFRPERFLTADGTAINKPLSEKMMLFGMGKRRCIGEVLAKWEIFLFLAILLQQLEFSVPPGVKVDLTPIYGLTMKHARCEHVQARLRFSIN

Solved entries (count: 8):
CC(=O)NCCNc1ccnc(-c2ccccc2C(F)(F)F)n1
15.8 µM (inconclusive)
c1nc(NCCc2c[nH]cn2)c2nc[nH]c2n1
5.01 µM (inconclusive)
COc1ccc(S(=O)(=O)N2CCCN(CCC(=O)Nc3cccc(C(F)(F)F)c3)CC2)cc1
15.8 µM (inconclusive)
CCOC(=O)c1ncn2c1CN(C)C(=O)c1cc(F)ccc1-2
39.8 µM (inconclusive)
CC(=O)N1CCN(C)CC1
31.6 µM (inconclusive)
Cc1cc(=O)oc2c(OS(C)(=O)=O)c(OS(C)(=O)=O)ccc12
0.794 µM (inconclusive)
Cc1cccc(N2CC(=O)C(c3nc4ccccc4n3C)=C2N)c1
14.1 µM (inconclusive)
Cc1ccc(-c2nn(C)c(=O)c3ccccc23)cc1CNC(=O)Cn1nc(-c2ccccc2)c2ccccc2c1=O
31.6 µM (inconclusive)

For CC[C@H](NC(C)C)[C@H](O)c1ccc(O)c2[nH]c(=O)ccc12 , what is its reported AC50?
39.8 µM (inconclusive)

// query: COc1ccc(-n2c(=O)c(-c3cccs3)nc3cnc(N4CCOCC4)nc32)cc1
12.6 µM (inconclusive)

// query: COc1cccc(OC)c1OCCCCN1CCCC1
15.8 µM (inconclusive)

---

Quick reference for IC50 among some compounds
# target: Induced myeloid leukemia cell differentiation protein Mcl-1 (Homo sapiens, UniProt Q07820)
# Sequence (Q07820 whole entry): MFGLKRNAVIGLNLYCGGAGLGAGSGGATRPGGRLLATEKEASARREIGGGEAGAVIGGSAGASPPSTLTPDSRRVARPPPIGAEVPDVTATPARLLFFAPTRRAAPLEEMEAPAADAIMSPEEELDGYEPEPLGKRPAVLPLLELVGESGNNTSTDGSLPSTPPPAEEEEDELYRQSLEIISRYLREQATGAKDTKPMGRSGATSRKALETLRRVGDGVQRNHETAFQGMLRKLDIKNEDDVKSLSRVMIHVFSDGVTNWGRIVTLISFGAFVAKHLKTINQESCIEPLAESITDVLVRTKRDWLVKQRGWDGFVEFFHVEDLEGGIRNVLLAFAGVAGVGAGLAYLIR
# Type: functional
The source made the active and inactive calls.

Solved entries (count: 2):
[O-][Cl+3]([O-])([O-])[O-].c1ccc(-c2ccc(-c3n(-c4ccccn4)c4ccccc4[n+]3-c3ccccn3)cc2)cc1
> 54 µM (not active)
OCCNc1nc(Nc2ccccc2)nc(Nc2ccccc2)n1
24.3 µM (not active)

For O=S(=O)(Cc1cc(Cl)nc(-c2ccncc2)n1)c1ccccc1 , what is its reported IC50?
6.12 µM (active)

// query: CC(=O)C1=C(S(=O)(=O)c2ccc(C)cc2)CS(=O)(=O)C1
10.9 µM (active)

// query: CN(CCC#N)C(=O)COC(=O)c1c2c(nc3ccccc13)/C(=C/c1ccco1)CC2
1.44 µM (active)

// query: Cc1ccc(O)c(NC2=C(Cl)C(=O)N(Cc3ccccc3)C2=O)c1
3.01 µM (not active)

---

# target: Protein RecA (Mycobacterium tuberculosis)
# Sequence (P9WHJ3 whole entry): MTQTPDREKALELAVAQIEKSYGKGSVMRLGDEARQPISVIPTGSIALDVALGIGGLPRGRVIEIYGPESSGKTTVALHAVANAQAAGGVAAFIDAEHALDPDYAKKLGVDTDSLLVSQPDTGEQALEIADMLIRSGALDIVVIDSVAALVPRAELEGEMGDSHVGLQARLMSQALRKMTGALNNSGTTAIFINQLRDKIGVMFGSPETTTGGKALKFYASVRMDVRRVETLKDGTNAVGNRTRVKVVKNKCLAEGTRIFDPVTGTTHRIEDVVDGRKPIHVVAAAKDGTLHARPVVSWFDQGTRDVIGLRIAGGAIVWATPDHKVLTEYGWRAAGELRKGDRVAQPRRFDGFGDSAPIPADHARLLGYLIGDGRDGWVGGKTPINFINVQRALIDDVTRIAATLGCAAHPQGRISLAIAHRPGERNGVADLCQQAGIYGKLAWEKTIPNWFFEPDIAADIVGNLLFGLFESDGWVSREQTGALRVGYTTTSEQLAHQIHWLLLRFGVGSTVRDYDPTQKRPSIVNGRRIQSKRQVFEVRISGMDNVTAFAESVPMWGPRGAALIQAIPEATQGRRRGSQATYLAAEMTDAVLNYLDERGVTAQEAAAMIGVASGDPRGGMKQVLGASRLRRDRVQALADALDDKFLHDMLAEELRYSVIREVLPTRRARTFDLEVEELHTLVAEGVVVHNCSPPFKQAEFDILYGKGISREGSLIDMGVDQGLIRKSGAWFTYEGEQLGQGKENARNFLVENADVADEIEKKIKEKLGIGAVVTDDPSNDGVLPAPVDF
# experiment-summary: Fluorescence Cell-Free Homogeneous Dose Retest to Identify Inhibitors of RecA-Intein Splicing Activity. [Related pubchem assays (depositor defined):AID2097, AID2223, AID489010, AID492950]
# Type: functional
Calls of active or inactive are those of the source.
Mark one answer only. Choices: active, inactive

O=C1/C(=N\c2ccc(O)cc2)C=C(O)c2ccccc21
active
O=[N+]([O-])c1c(O)nc(O)nc1/C=C/c1cccnc1
inactive
CC(=O)Nc1ccc(NC(=O)c2nc(S(=O)(=O)Cc3ccccc3)ncc2Cl)cc1
active
Clc1ccc2nnnc(-c3ccccc3)c2c1
active
CCCCS/C(=C(/C#N)C(N)=O)c1cc2c([nH]1)CCCC2
active
Cc1ccc(NC(=O)c2nc(S(=O)(=O)Cc3ccccc3C)ncc2Cl)cc1C
active
CCOC(=O)Cc1n[nH]c2c1C(c1cc(OC)ccc1OC)C(C#N)=C(N)O2 (configuration not stated)
active
CCOC(=O)c1c(CSC(=N)N)n(-c2ccccc2)c2cc(Br)c(OC(C)=O)cc12
active

// return assay outcome for CCOC(=O)CC1=NN(c2ccccc2)C(=O)/C1=C\c1ccc(OC)cc1OC
active

// query: O=C(CCl)N1N=C(c2ccco2)CC1c1cccs1 (configuration not stated)
active

// query: Cc1nn(-c2ccccc2)c2c1C(c1ccccc1)C(C#N)=C(N)O2 (configuration not stated)
active

// query: COC(=O)CC1=NN(c2ccc(OC)cc2)C(=O)C1
active

---

# Test system: Streptococcus sp. 'group A'
# experiment-summary: growth inhibition of control SK(-) GAS strain, dose response, counter-screen for streptokinase expression inhibitor project, luminescence, kanamycin, BacTiterGlo, confirmation (AID 1900)
# Format: functional, organism-based
The source made the active and inactive calls.
quantity-kind: EC50

Solved entries (count: 4):
O=C(/C=C/c1ccccc1)c1cc(Br)ccc(=O)c1O
1.95 µM (active)
C=CCSc1nc2ccccc2c(=O)n1Cc1ccccc1
15.7 µM (active)
Cc1cc(NC(=O)CN2C(=O)c3ccccc3C2=O)no1
> 150 µM (not active)
O=C(NC(NC(=S)Nc1c(Cl)cccc1Cl)C(Cl)(Cl)Cl)OCc1ccccc1 (stereo not drawn)
1.65 µM (active)

For Fc1ccccc1NC1=NN=C(c2ccccc2)CS1 , what is its reported EC50?
4.31 µM (active)

// query: NC(=O)NC(=O)CSc1nc2sc(-c3ccccc3)cc2c(=O)n1-c1ccccc1
2.21 µM (active)

// query: CCN1CCN(Cc2ccc(NC(=O)c3ccc(C)c(NC(=O)C(=O)c4c[nH]c5ccccc45)c3)cc2C(F)(F)F)CC1
4.28 µM (active)

// query: NS(=O)(=O)c1ccc(N/N=C2/CCCCC2C2CCCCC2)c([N+](=O)[O-])c1 (stereo not drawn)
3.34 µM (active)

Taken from ChEMBL document CHEMBL1201862.
